# credit: the supplement of paper PMC10981050

Please go through the items and note down their cell viability.
# Test system: MARIMO
# TEST: cell viability relative to vehicle control; higher = less cytotoxic;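 note: after 48 h exposure read by CellTiter-Glo luminescence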
# CONDITIONS_USED: 10 µM; SRSF2 genotype: SRSF2 wt/wt
Structures can show the parent of a compound that is named as a salt.
Give the number; % is assumed, so skip it.

q: Reported cell viability, molecule O=C(O)CCc1ccc(O)cc1O [Hydroumbellic acid] : ____
a: 104

q: Would you kindly repeat that for "C1CCN2C[C@@H]3C[C@@H](CN4CCCC[C@@H]34)[C@H]2C1" ?
a: 94.9

q: Would you kindly repeat that for "Cc1nc(C)c(C)nc1C" ?
a: 111

q: Would you kindly repeat that for COC(=O)C1=C(C)NC(C)=C(C(=O)OCCN(C)Cc2ccccc2)C1c1cccc([N+](=O)[O-])c1 (configuration not stated) [Nicardipine HCl] ?
a: 91.3

q: Would you kindly repeat that for "OCCn1cc(-c2ccc3c(c2)CC/C3=N\O)c(-c2ccncc2)n1" ?
a: 73

q: Would you kindly repeat that for "C[C@H](CSC(=O)c1ccccc1)C(=O)N1C[C@@H](Sc2ccccc2)C[C@H]1C(=O)O" ?
a: 96.9

q: Would you kindly repeat that for "Clc1cccc(CN=C2Nc3ccccc3NC23CCNCC3)c1" ?
a: 70.1

q: Would you kindly repeat that for "CC(C)c1noc(N2CCC(COc3ccc(-c4ccc(S(C)(=O)=O)cc4)nc3)CC2)n1" ?
a: 34.1

q: Would you kindly repeat that for "N#C[C@@H]1CCCN1C(=O)CNC12CC3CC(CC(O)(C3)C1)C2" ?
a: 88.6

q: Would you kindly repeat that for "Cc1ncc(Cl)cc1NCc1ccc(C(=O)N[C@@H](CC2CCCC2)C(=O)NC2CC2)s1" ?
a: 94

q: Would you kindly repeat that for "C=C1[C@H](OC(=O)/C=C(\C)CC)C[C@@H](C(C)C)[C@@H]2[C@@H]([C@@H](C)OC(C)=O)C(=O)C[C@@H]12" ?
a: 53.2

q: Would you kindly repeat that for "COc1ccc(-c2oc3c(CC=C(C)C)c(O[C@@H]4O[C@H](CO)[C@@H](O)[C@H](O)[C@H]4O)cc(O)c3c(=O)c2O[C@@H]2O[C@@H](C)[C@H](O)[C@@H](O)[C@H]2O[C@@H]2OC[C@@H](O)[C@H](O)[C@H]2O)cc1" ?
a: 93

q: Would you kindly repeat that for "Cc1cc(O)cc(O)c1" ?
a: 98.8

q: Would you kindly repeat that for "O=C1c2ccccc2-c2n[nH]c3cccc1c23" ?
a: 72

q: Would you kindly repeat that for "FC(F)c1nc2ccccc2n1-c1nc(N2CCOCC2)nc(N2CCOCC2)n1" ?
a: 43.4

q: Would you kindly repeat that for "O=C(O)CCn1c2c(c3ccccc31)C[C@H](NS(=O)(=O)c1ccc(F)cc1)CC2" ?
a: 108

q: Would you kindly repeat that for "N#Cc1c(O)c2c(-c3ccc(-c4ccccc4O)cc3)csc2[nH]c1=O" ?
a: 103

---

# Tested on: OCI-AML2
# TEST: cell viability relative to vehicle control; higher = less cytotoxic
# CONDITIONS_USED: 10 µM; SRSF2 genotype: P95H/wt
Structures can show the parent of a compound that is named as a salt.
Please go through the items and note down their cell viability.
Give the number; % is assumed, so skip it.

q: Reported cell viability, compound CN(C)CC(c1ccc(O)cc1)C1(O)CCCCC1 (stereo not given) [Desvenlafaxine] : ____
a: 100

q: Would you kindly repeat that for "COC(=O)CC[C@H](NC(=O)[C@H](CC(=O)OC)NC(=O)OCc1ccccc1)C(=O)N[C@H](C(=O)N[C@@H](CC(=O)OC)C(=O)CF)C(C)C" ?
a: 98.4

q: Would you kindly repeat that for Cc1ccc(NC(=O)c2ccc(CN3CCN(C)CC3)cc2)cc1Nc1nccc(-c2cccnc2)n1 [Imatinib (STI571)] ?
a: 82.6

q: Would you kindly repeat that for CCN1CCC[C@H]1CNC(=O)c1cc(S(N)(=O)=O)ccc1OC [Levosulpiride (Levogastrol)] ?
a: 104

q: Would you kindly repeat that for Cc1nc2n(c(=O)c1CCN1CCC(c3noc4cc(F)ccc34)CC1)CCCC2 [Risperidone (Risperdal)] ?
a: 98.8

q: Would you kindly repeat that for NCCc1c[nH]cn1 [Histamine] ?
a: 81.6

q: Would you kindly repeat that for CN(C)CCOc1ccc(/C(=C(/CCCl)c2ccccc2)c2ccccc2)cc1 [Toremifene Citrate (Fareston, Acapodene)] ?
a: 60

q: Would you kindly repeat that for "O=C(CCN1CCN(C(=O)OCc2cc(Cl)cc(Cl)c2)CC1)c1ccc2[nH]c(=O)oc2c1" ?
a: 88.2

q: Would you kindly repeat that for CC1(N)CCN(c2cnc(-c3cccc(Cl)c3Cl)c(N)n2)CC1 [SHP099 hydrochloride] ?
a: 25.4

q: Would you kindly repeat that for Cc1ccc(NC(=O)c2ccc(CN3CCN(C)CC3)cc2)cc1Nc1nc(-c2cccnc2)cs1 [Masitinib (AB1010)] ?
a: 52

q: Would you kindly repeat that for CN(C)CCCN1c2ccccc2Sc2ccc(Cl)cc21 [Chlorpromazine HCl] ?
a: 25.3

q: Would you kindly repeat that for COc1cc(C=CC(=O)CC(=O)C=Cc2ccc(O)cc2)ccc1O [Demethoxycurcumin] ?
a: 13.5

q: Would you kindly repeat that for CN(CCOc1ccc(NS(C)(=O)=O)cc1)CCc1ccc(NS(C)(=O)=O)cc1 [Dofetilide (Tikosyn)] ?
a: 99

q: Would you kindly repeat that for COC(=O)N[C@H](C(=O)N1CCC[C@H]1c1nc(-c2ccc3c(c2)O[C@@H](c2ccccc2)n2c-3cc3cc(-c4c[nH]c([C@@H]5CCCN5C(=O)[C@@H](NC(=O)OC)C(C)C)n4)ccc32)c[nH]1)C(C)C [Elbasvir] ?
a: 91

q: Would you kindly repeat that for Cc1nnc(C(=O)NC(C)(C)c2nc(C(=O)NCc3ccc(F)cc3)c(O)c(=O)n2C)o1 [Raltegravir (MK-0518)] ?
a: 95.4

q: Would you kindly repeat that for CN1C(C(=O)Nc2ccccn2)=C(O)c2sc(Cl)cc2S1(=O)=O [Lornoxicam (Xefo)] ?
a: 92.8

q: Would you kindly repeat that for C=C1C(=O)O[C@@H]2/C=C(\C)CC/C=C(\C)CC[C@@H]12 [Costunolide] ?
a: 2.25

q: Would you kindly repeat that for NC1(c2ccc(-c3nc4ccn5c(=O)[nH]nc5c4cc3-c3ccccc3)cc2)CCC1 [MK-2206 dihydrochloride] ?
a: 5.42

q: Would you kindly repeat that for CCCCc1oc2ccc(NS(C)(=O)=O)cc2c1C(=O)c1ccc(OCCCN(CCCC)CCCC)cc1 [Dronedarone HCl (Multaq)] ?
a: 0.5

q: Would you kindly repeat that for CCCCC(C)(O)C/C=C/[C@H]1[C@H](O)CC(=O)[C@@H]1CCCCCCC(=O)OC (mixture of isomers) [Misoprostol] ?
a: 89.2

q: Would you kindly repeat that for CCCCC(CC)COC(=O)C=Cc1ccc(OC)cc1 (stereo not given) [Octinoxate] ?
a: 90.2

q: Would you kindly repeat that for CC(=O)O[C@]1(C(C)=O)CC[C@H]2[C@@H]3CCC4=CC(=O)CCC4=C3[C@@H](c3ccc(N(C)C)cc3)C[C@@]21C [Ulipristal acetate] ?
a: 84.6

q: Would you kindly repeat that for "CN[C@@H](C)C(=O)N[C@H]1CN(C(=O)CC(C)C)CC[C@H]2CC[C@@H](C(=O)NC(c3ccccc3)c3ccccc3)N2C1=O" ?
a: 60.2

q: Would you kindly repeat that for COc1cc2c[n+](C)c3c4cc5c(cc4ccc3c2cc1OC)OCO5 [Nitidine Chloride] ?
a: 0.61

q: Would you kindly repeat that for COc1c2occc2cc2ccc(=O)oc12 [Methoxsalen (Oxsoralen)] ?
a: 98.1

q: Would you kindly repeat that for "CN(C)c1cccc(-c2c3c(=O)n(-c4ccccc4Cl)[nH]c3cc(=O)n2C)c1" ?
a: 101

q: Would you kindly repeat that for CCCCCCC1CCC(=O)O1 (stereo not given) ?
a: 96.3

q: Would you kindly repeat that for C[C@@H]1C[C@H]2[C@@H]3CCC4=CC(=O)C=C[C@]4(C)[C@@]3(Cl)[C@@H](O)C[C@]2(C)[C@@]1(OC(=O)c1ccco1)C(=O)CCl [Mometasone furoate] ?
a: 113

q: Would you kindly repeat that for CCCC(=O)Nc1ncnc2c1ncn2[C@@H]1O[C@@H]2COP(=O)(O)O[C@H]2[C@H]1OC(=O)CCC [Dibutyryl-cAMP (Bucladesine)] ?
a: 104

q: Would you kindly repeat that for CC(=O)OCC(=O)[C@@]12N=C(C)O[C@@H]1C[C@H]1[C@@H]3CCC4=CC(=O)C=C[C@]4(C)[C@H]3[C@@H](O)C[C@@]12C [Deflazacort (Calcort)] ?
a: 91.4

---

# System: OCI-AML2
# TEST: cell viability relative to vehicle control; higher = less cytotoxic
# CONDITIONS_USED: 10 µM; SRSF2 genotype: P95H/wt
Counter-ions that a name gives are not always drawn.
Kindly apply the following: MET if cell viability is less than 90%, NOT MET in every other case.

q: Could you please tell me whether cell viability recorded for Cc1cccc(CN2CCN(C(c3ccccc3)c3ccc(Cl)cc3)CC2)c1 (stereo not drawn) [Meclizine dihydrochloride] is less than 90%?
a: MET

q: Would you kindly repeat that for "NCCOc1ccc(Cl)cc1C(=O)Nc1ccc([N+](=O)[O-])cc1Cl" ?
a: MET

q: Would you kindly repeat that for "O=C(NOCC1CC1)c1ccc(F)c(F)c1Nc1ccc(I)cc1Cl" ?
a: MET

q: Would you kindly repeat that for "C[C@@H](N)[C@H]1CC[C@H](C(=O)Nc2ccncc2)CC1" ?
a: MET

q: Would you kindly repeat that for "CN1CCc2nc(C(=O)N[C@@H]3C[C@@H](C(=O)N(C)C)CC[C@@H]3NC(=O)C(=O)Nc3ccc(Cl)cn3)sc2C1" ?
a: NOT MET

q: Would you kindly repeat that for "CC(C)(F)C[C@H](N[C@@H](c1ccc(-c2ccc(S(C)(=O)=O)cc2)cc1)C(F)(F)F)C(=O)NC1(C#N)CC1" ?
a: NOT MET

q: Would you kindly repeat that for "N#C[C@@H]1C[C@@H]2C[C@@H]2N1C(=O)[C@@H](N)C12CC3CC(CC(O)(C3)C1)C2" ?
a: NOT MET
